- System: HLA-A24
- Method: REVEAL binding assay
- Assay Setup: score as percentage of the signal generated by the positive control peptide
Where no end group is shown, it is not given here. [ ]: non-standard residue; d: D form. Cit = NC(=O)NCCC[C@H](N)C(=O)O
Assay Endpoint: REVEAL binding score, HLA-type A24
# number then unit; no other words

RALAHGVRV : 0.84%
VIETLTSGF : 0.82%
IRNLGRVIE : 0.61%
NYATGNLPG : 1.13%
RNLGRVIET : 0.51%
TGNLPGCSF : 4.81%
GP[Cit]IGVRAT : 0.16%
IGGNYLIPR : 0.89%
VGGVYLLPR : 0.34%

Alright, here's another substance for you.
Given the substance `TFSIYLIVS` , what is its reported REVEAL binding score, HLA-type A24?
0.60%
